test system: S. pneum 1256 (erm); test: microbe, parasite or virus in culture; type: cell-based, streptococcus pneumoniae; conditions: agar dilution, 18-24 hours, 35±2° C., 5% CO2; erm: ribosomal modification (mutation) erm genes
List of Minimum Inhibitory Concentrations, S. pneum 1256 (erm) values.
MEASURED ENDPOINT: Minimum Inhibitory Concentrations, S. pneum 1256 (erm)

INSERT INTO results (molecule, reported_result) VALUES
  ('CCC1OC(=O)C(C)C(OC(=O)Cc2ccc(F)cc2F)C(C)C(OC2OC(C)CC(N(C)Cc3ccccc3)C2O)C(C)(OC)CC(C)C(=O)C(C)C(O)C1(C)O (stereo not drawn)', '>16 µg/mL'),
  ('CCC1OC(=O)C(C)C(OC(=O)Cc2ccc(F)cc2)C(C)C(OC2OC(C)CC(N(C)Cc3cccc(O)c3)C2O)C(C)(OC)CC(C)C(=O)C(C)C(O)C1(C)O (stereo not drawn)', '>16 µg/mL'),
  ('C#CCN(C)C1CC(C)OC(OC2C(C)C(OC(=O)Cc3ccc(F)cc3)C(C)C(=O)OC(CC)C(C)(O)C(O)C(C)C(=O)C(C)CC2(C)OC)C1O (stereo not drawn)', '>16 µg/mL');
